Overview of recorded Phage binding ELISA, Anti-CD28 Fab signal in the presence of CD28 for various binders
Target: T1, Anti-CD28 Fab (SEQ ID NOs: 696, 697)
T1 construct: Biotinylated and captured on neutravidin coated plates in the phage ELISA
T1 sequence (VH, as listed by the source, chain 1 of 2): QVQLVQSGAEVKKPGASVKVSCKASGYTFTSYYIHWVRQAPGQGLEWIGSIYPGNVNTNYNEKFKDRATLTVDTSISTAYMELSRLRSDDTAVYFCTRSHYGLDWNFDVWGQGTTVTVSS
T1 sequence (VL, as listed by the source, chain 2 of 2): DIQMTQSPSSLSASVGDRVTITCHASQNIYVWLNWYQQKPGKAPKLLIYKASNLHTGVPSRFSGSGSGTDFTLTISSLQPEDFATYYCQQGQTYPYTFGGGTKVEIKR
Assay: phage ELISA on captured anti-CD28 Fab; competitor CD28 antigen pre-incubated in the wells;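 further: clonal phage supernatants added to wells preloaded with CD28 antigen in blocking buffer, control wells buffer only, bound phage read via HRP-linked anti-M13 antibody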
Simply state the number, no unit and no words.

Input YCDGHLPEYMSKCM (tested as crude clonal phage supernatant) [Phage-518] , output reported Phage binding ELISA, Anti-CD28 Fab signal in the presence of CD28. 0.14

Input YCDGHLPEYMAKCL (tested as crude clonal phage supernatant) [Phage-521] , output reported Phage binding ELISA, Anti-CD28 Fab signal in the presence of CD28. 0.13

Input YCDGHSWEYIGKCL (tested as crude clonal phage supernatant) [Phage-522] , output reported Phage binding ELISA, Anti-CD28 Fab signal in the presence of CD28. 0.07

Input YCEGHAAEYMAKCL (tested as crude clonal phage supernatant) [Phage-515] , output reported Phage binding ELISA, Anti-CD28 Fab signal in the presence of CD28. 0.08

Reference source: patent US20260242478A1
